Would you mind telling me the reported % inhibition T4 130' 40 of each entry?
- System tested: bacteriophage T4 DNA polymerase (Enterobacteria phage T4)
- Construct: made in house
- Sequence (P04415 whole entry): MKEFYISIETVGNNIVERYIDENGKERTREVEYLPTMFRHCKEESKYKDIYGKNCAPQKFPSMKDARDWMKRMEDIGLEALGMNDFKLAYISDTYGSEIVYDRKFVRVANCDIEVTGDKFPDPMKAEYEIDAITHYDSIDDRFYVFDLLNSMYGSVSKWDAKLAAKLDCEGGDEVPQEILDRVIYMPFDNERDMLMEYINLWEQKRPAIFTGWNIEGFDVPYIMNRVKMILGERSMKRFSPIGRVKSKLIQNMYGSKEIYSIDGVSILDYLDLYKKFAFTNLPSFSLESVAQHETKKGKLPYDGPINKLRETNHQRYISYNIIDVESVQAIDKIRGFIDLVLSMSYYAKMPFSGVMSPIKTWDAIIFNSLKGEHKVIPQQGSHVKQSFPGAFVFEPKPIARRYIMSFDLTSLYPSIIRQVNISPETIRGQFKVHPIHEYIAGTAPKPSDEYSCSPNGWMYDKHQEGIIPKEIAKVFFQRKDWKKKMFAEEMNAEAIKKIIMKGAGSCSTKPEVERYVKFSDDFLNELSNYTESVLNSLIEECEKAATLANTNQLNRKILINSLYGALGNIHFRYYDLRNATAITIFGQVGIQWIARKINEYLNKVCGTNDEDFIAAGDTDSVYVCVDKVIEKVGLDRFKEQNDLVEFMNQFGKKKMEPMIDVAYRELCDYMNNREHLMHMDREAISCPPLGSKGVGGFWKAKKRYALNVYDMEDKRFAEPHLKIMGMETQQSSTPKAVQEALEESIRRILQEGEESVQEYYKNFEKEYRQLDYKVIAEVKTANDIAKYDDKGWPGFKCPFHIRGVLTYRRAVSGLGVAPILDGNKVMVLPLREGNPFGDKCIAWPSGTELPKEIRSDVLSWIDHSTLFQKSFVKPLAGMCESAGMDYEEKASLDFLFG
- Assay protocol: Counter-screen against bacteriophage T4 DNA polymerase
- Format: biochemical
- Measurement context: DRC-1; read at 130'; concentration 40
- Method: Codon-optimized, exonuclease-deficient Pf-apPOL was overexpressed in E. coli BL21 (DE3) and purified as described. The protein was dialysed against two, 1-liter changes of 20 mM Tris-HCl (pH 8.0), 400 mM NaCl, and 20% glycerol. […] Each compound was tested in a dose-response format to determine IC50 values. […] T4 DNA polymerase can be produced in large quantities, and is in the same family (B-family) as the replicative human DNA polymerases (α, δ, and ε)[20].
Give bare numbers, in %.

Example entries begin here.
Compound: O=C(c1ccccc1)N1CCc2c(nc3cc(-c4ccccc4)[nH]n3c2=O)C1 [Molecule 30]
% inhibition T4 130' 40 [%]: -1.0022
--
Compound: O=C1CSC2=NC3=C(CCc4ccccc43)C(c3cccs3)N12 (stereo not drawn) [Molecule 59, O=C1CSC2=NC3=C(C(N12)c1cccs1)CCc1c3cccc1]
% inhibition T4 130' 40 [%]: 15.3496

Then there is this compound:
Request: Entry Cc1ccsc1Cn1c(C)ccc1C [Molecule 70, Cc1ccsc1Cn1c(C)ccc1C] , system bacteriophage T4 DNA polymerase (Enterobacteria phage T4): what % inhibition T4 130' 40 was measured?
Result: 10.2962

From: paper PMC9090415
